We begin with a simple list: items and their reported normalised indicator fluorescence.
# System: hsa-mir-374a loop
# PROTOCOL_SUMMARY: normalised indicator fluorescence (fraction of RNA + indicator signal without compound); higher = less displacement of indicator (weaker competition)
# STATED_CONDITIONS: compound concentration: 5 uM; 30 min; indicator: TO-PRO-1 0.1 uM; RNA concentration: 0.1 uM

Recorded normalised indicator fluorescence, per entry:
>  <COMPOUND>
Oc1cc(O)c2c(c1)O[C@H](c1ccc(O)c(O)c1)[C@@H](O)C2 [(+)-Catechin Hydrate]

>  <normalised indicator fluorescence>
1.15

$$$$
>  <COMPOUND>
CC(=O)O[C@H]1C[C@@]2(C)[C@@H](C[C@@H](O)[C@H]3[C@@]4(C)CC[C@@H](O)[C@@H](C)[C@@H]4CC[C@@]32C)/C1=C(\CCC=C(C)C)C(=O)O

>  <normalised indicator fluorescence>
1.15

$$$$
>  <COMPOUND>
O=C(Nc1ccc2[nH]nc(-c3ccncc3)c2c1)[C@@H]1CCN(CC(=O)N2CCN(c3ccc(-c4ncccn4)cc3)CC2)C1

>  <normalised indicator fluorescence>
1.09

$$$$
>  <COMPOUND>
CC1(C)OC(=O)C=C[C@]2(C)[C@H]3CC[C@@]4(C)[C@H](c5ccoc5)OC(=O)[C@H]5O[C@]54[C@]3(C)C(=O)C[C@@H]12

>  <normalised indicator fluorescence>
1.11

$$$$
>  <COMPOUND>
CC(C)=CCC[C@](C)(O[C@@H]1O[C@H](CO)[C@@H](O)[C@H](O)[C@H]1O)[C@H]1CC[C@]2(C)[C@@H]1[C@H](O)C[C@@H]1[C@@]3(C)CC[C@H](O)C(C)(C)[C@@H]3[C@@H](O[C@@H]3O[C@H](CO)[C@@H](O)[C@H](O)[C@H]3O[C@@H]3OC[C@@H](O)[C@H](O)[C@H]3O)C[C@]12C [Notoginsenoside R1]

>  <normalised indicator fluorescence>
1.21

$$$$

Quickly give me recorded normalised indicator fluorescence for COC1=C(OC)C(=O)C(CCCCCCCCCCO)=C(C)C1=O
1.04
